System tested: T. guaymasensis ADH (Thermococcus guaymasensis, UniProt F8S123)
Experiment summary: Substrate specificity, alcohol oxidation (standard enzyme assay)
Format: biochemical
Conditions used: alcohols 50 mM; 100% = 2-butanol; 0.4 mM NADP^+, pH 10.5, 80° C.
Label NOT MET if Relative activity (alcohol oxidation) falls below 40%; label MET in every other case.

| Compound | Category |
| --- | --- |
| CO | NOT MET |
| CCCC(C)O (stereo not shown) | MET |
| CC(C)O | MET |
| CCCCO | NOT MET |
| CCCC(O)CO (stereo not shown) | NOT MET |
| CC(O)CCO (stereo not shown) | NOT MET |
| CC(O)C(C)O (stereo not shown) | MET |
| CCO | NOT MET |
| CCCCCO | NOT MET |
| CCC(O)CO (stereo not shown) | NOT MET |
| OCC(O)CO | NOT MET |
| CC(O)CC(C)O (stereo not shown) | NOT MET |

----------
System tested: T. guaymasensis ADH (Thermococcus guaymasensis)
Experiment summary: Substrate specificity, aldehyde/ketone reduction (standard enzyme assay)
Type: biochemical
Conditions used: aldehydes or ketones 6 mM; 100% = 2-butanone; 0.2 mM NADPH, pH 7.5, 80° C.
Label False if Relative activity (aldehyde/ketone reduction) falls below 90%; label True in every other case.

| Molecule | System tested | Category |
| --- | --- | --- |
| CCCC=O [Butyraldehyde] | T. guaymasensis ADH (Thermococcus guaymasensis) | True |
| CC=O [Acetaldehyde] | T. guaymasensis ADH (Thermococcus guaymasensis) | False |
| CC(=O)C(C)O (racemic) [Acetoin] | T. guaymasensis ADH (Thermococcus guaymasensis) | True |
| CC(=O)C(C)=O [Diacetyl] | T. guaymasensis ADH (Thermococcus guaymasensis) | True |
| CC(C)=O [Acetone] | T. guaymasensis ADH (Thermococcus guaymasensis) | True |
| CCCC(C)=O [2-Pentanone] | T. guaymasensis ADH (Thermococcus guaymasensis) | False |
